Target: T1, prostate specific membrane antigen (PSMA) on LNCaP cells (human, UniProt Q04609 1-750)
T1 construct: also called PSMA-expressing cells
T1 sequence (Q04609 whole entry): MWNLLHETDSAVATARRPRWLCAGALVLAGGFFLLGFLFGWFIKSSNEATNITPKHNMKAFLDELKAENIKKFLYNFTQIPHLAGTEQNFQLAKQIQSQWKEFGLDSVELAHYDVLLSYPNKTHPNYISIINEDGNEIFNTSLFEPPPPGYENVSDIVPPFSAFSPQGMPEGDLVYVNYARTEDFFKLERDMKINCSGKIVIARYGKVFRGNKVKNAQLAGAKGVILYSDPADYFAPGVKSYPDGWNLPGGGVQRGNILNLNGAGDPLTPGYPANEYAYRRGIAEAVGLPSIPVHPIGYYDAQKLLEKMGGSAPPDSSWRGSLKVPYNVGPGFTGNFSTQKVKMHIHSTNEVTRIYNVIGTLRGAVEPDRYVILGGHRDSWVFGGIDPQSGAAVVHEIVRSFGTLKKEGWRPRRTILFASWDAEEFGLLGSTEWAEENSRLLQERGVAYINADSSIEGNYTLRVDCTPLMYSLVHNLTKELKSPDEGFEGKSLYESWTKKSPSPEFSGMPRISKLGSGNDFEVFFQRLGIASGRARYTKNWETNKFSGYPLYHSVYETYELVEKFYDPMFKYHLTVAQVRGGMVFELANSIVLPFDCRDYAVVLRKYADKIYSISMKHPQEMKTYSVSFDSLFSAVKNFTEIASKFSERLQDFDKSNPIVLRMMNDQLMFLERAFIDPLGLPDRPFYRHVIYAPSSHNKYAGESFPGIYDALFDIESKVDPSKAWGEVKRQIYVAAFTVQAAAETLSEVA
Assay: saturation binding on whole LNCaP cells, detected with 125I goat anti-mouse IgG
metric: Bmax

antibody PSf47.1 (antibody, V domains shown, also called mAb PSf47.1) VH: EVKLQESGPDLVKPGASVKVSCKASGYTFTVYVIHWVIQKPGQGLEWIGYINPYNDGAEYNENFKGKATLTSDKSSSTAYMELSSLTSEDSAVYYCTRGENYYTSRYGFFDVWGQGTTVTVS VL: DILMPQSPSSLAVSAGEKVTMSCKSSQSLLNSRTRKNYLAWYQQKLGQSPKLLIYWASTRESGVPDRFTGSGSGTDFTLTISSVQAEDLAVYYCKQSYNFITFGAGTKLELKR	4.6 pmol/mg
antibody PSf42.1 (antibody, V domains shown) VH: EVQLEESGAEFVRPGAAVKLSCTVSGLNIKDSYLHWVKQRPEQGLEWIGGIDPANGDVEYDPKFQGKAAITADTSSNTAYLRLSSLTSEDTAVYYCAPFPYWGAGTTVTVS VL: DILMTQSPLTLSVIIGQPASFSCKSSHSLLHRDGRTYLNWLLQRPGQSPQRLIYLVSKLDSGVPDRFTGSGSGTDFTLKISRVEAEDLGVYYCWQGTHFPRTFGGGTKLEIKR	2.8 pmol/mg
antibody PSf42.4 (antibody, V domains shown) VH: EVKLQQSGAELVKPGASVKLSCTASGFSIRDTYMHWVRQRPEQGLEWITGIDPENGNSKYAPRFQDKATIIADTSSNTVHLQLDTLTSEDTAVYYCTRELAYWGQGTTVTVS VL: DILMTQSPLTLSVIIGQPASFSCKSSHSLLHRDGRTYLNWLLQRPGQSPQRLIYLVSKLDSGVPDRFTGSGSGTDFTLKISRVEAEDLGVYYCWQGTHFPRTFGGGTKLEIKR	5.1 pmol/mg

So what does the record say about Bmax for antibody PSf42.3 (antibody, V domains shown) VH: EVQLQQSGAELAKPGASVKLSCTGSGFNIKDTYMHWVKQRPEQGLEWIGGIDPETGNTKFDPRFQDKATITSDTSSNTVLLQLSSLTSEDTAVYYCANLGRPFAHWGQGTTVTVS VL: HSADPVSISCKSSQSLLHRDGKTYLNWVFQRPGQSPQRLIYLVSLVDSGVPDRFTGSGSGTDFTLKINRVEAEDLGVYYCWQGTHFPRTFGGGTKLEIKR ?
4.9 pmol/mg
